- System: M19-MEL
- protocol description: NCI tumour cell line growth inhibition, 48 h
Calls of active or inactive are those of the source. Rule as the data show it: active = GI50 up to about 1.1 µM and inactive = higher. Non-standard residues stand in square brackets, D forms with d. Residues, ends and D or L forms follow the SMILES beside them. ξ: configuration not given here. *: point of attachment. NMeF = CN[C@@H](Cc1ccccc1)C(=O)O; NMeV = CN[C@H](C(=O)O)C(C)C; ξNMeV = CNC(C(=O)O)C(C)C; Boc = CC(C)(C)OC(=O)*; OBn = c1ccc(CO*)cc1
GI50 for assorted compounds

The examples below pair each entry with its known result.
compound: CCCCCCN(CCCCCC)C1=CC(=O)C(=O)c2ccccc21
GI50: 2.26 µM (inactive)

compound: O=Cc1c(O)ccc2ccc(O)c(-c3c(O)ccc4ccc(O)cc34)c12
GI50: > 100 µM (inactive)

compound: COc1ccc(C(=O)O[C@H]2[C@@H]3C=CO[C@@H](OC4OC(CO)C(O)C(O)C4O)[C@@H]3[C@@]3(CO)O[C@@H]23)cc1O (some centres undefined)
GI50: > 100 µM (inactive)

Quick one: GI50 for O=C1C=CC(=O)c2c1ccc1c3ccccc3n(-c3ccccn3)c21 ?
21 µM (inactive)

Quick one: GI50 for Cc1nc2nn(C)cc2c(=O)n1/N=C/c1ccccc1 ?
> 100 µM (inactive)

Quick one: GI50 for Cc1cc2c(ccc3c(C)cc(=O)oc32)o1 ?
> 100 µM (inactive)

Quick one: GI50 for CC(C)C(C(=O)N(C)[C@H](C(=O)N1CCC[C@H]1C(=O)N(C)[C@@H](Cc1ccccc1)C(=O)OCc1ccccc1)C(C)C)N(C)C(=O)[C@@H](NC(=O)OC(C)(C)C)C(C)C (some centres undefined) (Boc-V[ξNMeV][NMeV]P[NMeF]-OBn) ?
30 µM (inactive)

Quick one: GI50 for CC1OC(=O)C(C(C)C)NC(=O)C(C(C)C)OC(=O)C(C(C)C)NC(=O)C(C)OC(=O)C(C(C)C)NC(=O)C(C(C)C)OC(=O)C(C(C)C)NC(=O)C(C)OC(=O)C(C(C)C)NC(=O)C(C(C)C)OC(=O)C(C(C)C)NC1=O (centres undefined) ?
0.00367 µM (active)

Quick one: GI50 for Nc1ccn(CCCC(c2ccccc2)P(=O)(O)O)c(=O)n1 (centres undefined) ?
> 100 µM (inactive)
